# Assay Target: human RXFP1 (Homo sapiens, UniProt Q9HBX9)
# Sequence (Q9HBX9 1-757): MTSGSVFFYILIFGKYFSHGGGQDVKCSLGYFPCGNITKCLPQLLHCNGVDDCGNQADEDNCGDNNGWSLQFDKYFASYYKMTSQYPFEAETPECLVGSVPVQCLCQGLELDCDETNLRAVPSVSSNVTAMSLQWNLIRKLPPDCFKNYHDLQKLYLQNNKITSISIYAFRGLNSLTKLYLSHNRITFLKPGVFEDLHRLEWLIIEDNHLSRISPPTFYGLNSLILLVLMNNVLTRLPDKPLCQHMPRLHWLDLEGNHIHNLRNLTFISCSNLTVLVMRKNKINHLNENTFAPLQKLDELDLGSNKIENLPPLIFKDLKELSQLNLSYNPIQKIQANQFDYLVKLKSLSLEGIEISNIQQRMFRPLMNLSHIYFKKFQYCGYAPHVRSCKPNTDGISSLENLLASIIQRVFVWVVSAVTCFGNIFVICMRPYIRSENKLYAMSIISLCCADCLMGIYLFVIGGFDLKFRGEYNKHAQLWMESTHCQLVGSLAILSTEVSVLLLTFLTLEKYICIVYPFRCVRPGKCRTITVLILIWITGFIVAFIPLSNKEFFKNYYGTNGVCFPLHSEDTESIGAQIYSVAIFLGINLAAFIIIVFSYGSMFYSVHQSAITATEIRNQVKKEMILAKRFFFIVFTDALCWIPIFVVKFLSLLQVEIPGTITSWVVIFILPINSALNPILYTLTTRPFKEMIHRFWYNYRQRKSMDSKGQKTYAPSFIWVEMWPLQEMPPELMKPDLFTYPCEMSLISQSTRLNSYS
# Measurement Description: RXFP1 Hu cAMP (Test A)
# Format: cell-based
# Set-up: expressed in transfected cells; host or cells: Jump-In T-REx CHO-K1 cells (ThermoFisher), induced with 10 ng/ml doxycycline for 24 h
# Test Conditions: RXFP1 Hu cAMP; read-out: Test A EC50
Listed next: entries and their corresponding EC50.
Kindly answer with a numeric value in nM, unit omitted.

State its EC50: "COc1cc(F)c(O[C@H]2CC[C@@](C)(C(=O)O)CC2)cc1C(=O)Nc1ccccc1C(=O)NCC(C)(C)C"
320

State its EC50: COc1cc(F)c(O[C@H]2CC[C@@](C)(C(=O)O)CC2)cc1C(=O)N[C@@H]1[C@@H]2CC[C@@H](C2)[C@@H]1C(=O)Nc1cccc(S(=O)(=O)C(F)(F)F)c1 (racemic)
3.2
